Origin of the recorded values: paper PMC9482650

Target: T1, ARHGEF11, O15085
T1 sequence (O15085 42-136, limits assumed, looked up): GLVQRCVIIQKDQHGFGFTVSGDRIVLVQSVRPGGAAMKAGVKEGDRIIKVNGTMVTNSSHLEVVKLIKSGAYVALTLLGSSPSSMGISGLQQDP
Assay: holdup assay
Set-up: key: below the threshold = too weak to quantify, mostly under pKd 3.1 to 4
Settings: plain residues with an end cap or a label only (N-terminal biotin on a linker: ado-ado)
binders and their reported pKd
Give only the figure.

## Input Consider the binder GTGYDRKDYV [CLDN3, O15551] and give its measured pKd.
## Output 3.9

## Input Given the entry ARESQKVSHV [FAM110B, Q8TC76] , report its measured pKd.
## Output 4.19

## Input Given the binder DGVNEKVSCV [HTR2A, P28223] , what is its reported pKd?
## Output 4.18
